biological target: UniProt:Q9P1W9; test: Pim2 AlphaScreen assay (high ATP)
Sequence (Q9P1W9 whole entry): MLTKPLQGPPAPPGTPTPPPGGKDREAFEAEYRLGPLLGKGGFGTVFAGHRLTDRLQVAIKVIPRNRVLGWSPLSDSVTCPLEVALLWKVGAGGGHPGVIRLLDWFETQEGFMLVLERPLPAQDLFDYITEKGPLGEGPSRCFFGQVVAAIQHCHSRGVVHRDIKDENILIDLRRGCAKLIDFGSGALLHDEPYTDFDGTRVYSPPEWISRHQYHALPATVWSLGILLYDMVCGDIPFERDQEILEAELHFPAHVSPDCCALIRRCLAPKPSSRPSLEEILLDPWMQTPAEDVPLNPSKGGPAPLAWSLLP
Measured Quantity: IC50 (nM)

C[C@@H]1C[C@H](c2ccncc2NC(=O)c2nc(-c3c(F)cccc3F)ccc2N)C[C@H](O)[C@]1(O)CF ... 4650
C[C@H]1C[C@@H](c2ccncc2NC(=O)c2ccc(F)c(-c3c(F)cc(C(F)F)cc3F)n2)C[C@@H](N)[C@]1(C)O ... 7.56
C[C@H]1C[C@@H](c2ccncc2NC(=O)c2ccc(F)c(-c3c(F)cc(C4CCS(=O)(=O)CC4)cc3F)n2)C[C@@H](N)[C@]1(C)O ... 1.53

I. C[C@H]1C[C@@H](c2ccncc2NC(=O)c2nc(-c3nc(Cl)c(C#N)cc3F)ccc2N)C[C@@H](O)[C@]1(C)O
II. CC(C)Oc1cc(F)c(-c2nc(C(=O)Nc3cnccc3[C@H]3C[C@@H](O)[C@](C)(O)[C@@H](C)C3)ccc2F)c(F)c1
-- ask Which item exceeds the other in IC50, I or II ? // respond with label for picked entry
-- reply I
(I: 17000 nM, II: 183 nM)

###

target: UniProtKB P11309; experiment: Pim1 AlphaScreen assay (high ATP)
Sequence (P11309 whole entry): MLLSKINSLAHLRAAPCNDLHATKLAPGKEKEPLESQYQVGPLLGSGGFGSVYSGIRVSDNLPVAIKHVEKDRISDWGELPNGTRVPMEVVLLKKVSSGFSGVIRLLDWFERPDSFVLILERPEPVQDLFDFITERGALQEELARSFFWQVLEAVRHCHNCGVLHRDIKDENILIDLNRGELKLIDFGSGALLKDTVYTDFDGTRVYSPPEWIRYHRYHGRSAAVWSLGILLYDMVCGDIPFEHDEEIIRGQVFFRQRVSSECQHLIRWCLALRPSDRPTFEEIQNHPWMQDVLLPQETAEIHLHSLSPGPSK
Measured Quantity: IC50 (nM)

C[C@H]1C[C@@H](c2ccncc2NC(=O)c2nc(-c3cccc(OC(F)F)n3)ccc2N)C[C@@H](O)[C@]1(C)O ... 35.2
C[C@H]1C[C@@H](c2ccncc2NC(=O)c2nc(-c3c(F)cc(C(C)(C)O)cc3F)ccc2N)C[C@@H](O)[C@]1(C)O ... 0.34
CC[C@]1(O)[C@H](N)C[C@H](c2ccncc2NC(=O)c2ccc(F)c(-c3c(F)cccc3F)n2)C[C@@H]1C ... 0.13
C[C@H]1C[C@@H](c2ccncc2NC(=O)c2nc(-c3c(F)cc(C4CCOCC4)cc3F)sc2N)C[C@@H](N)[C@]1(C)O ... 0.01
C[C@@H]1C[C@H](c2ccncc2NC(=O)c2ccc(F)c(-c3c(F)cc(C(C)(C)O)cc3F)n2)C[C@H](O)[C@@]1(C)O ... 18.8
C[C@H]1C[C@@H](c2ccncc2NC(=O)c2ccc(F)c(-c3c(F)cc(C4(F)CCOCC4)cc3F)n2)C[C@@H](N)[C@]1(C)O ... 0.04

a. CC(=O)c1ccc(F)c(-c2ccc(N)c(C(=O)Nc3cnccc3[C@H]3C[C@@H](O)[C@](C)(O)[C@@H](C)C3)n2)n1
b. CC(C)Oc1cc(F)c(-c2nc(C(=O)Nc3cnccc3[C@H]3C[C@@H](O)[C@](C)(O)[C@@H](C)C3)ccc2F)c(F)c1
-- ask Hello, I am sorting some records. Could you say if a or b has the smaller IC50 value? // respond with label for picked entry
-- reply b

P. C[C@@H]1C[C@H](c2ccncc2NC(=O)c2ccc(F)c(-c3c(F)cccc3F)n2)C[C@H](O)[C@]1(O)CF
Q. C[C@H]1C[C@@H](c2ccncc2NC(=O)c2ccc(F)c(-c3c(F)cc(C(C)(C)C(=O)O)cc3F)n2)C[C@@H](N)[C@]1(C)O
R. COc1cc(F)c(-c2nc(C(=O)Nc3cnccc3[C@H]3C[C@@H](O)[C@](C)(O)[C@@H](C)C3)ccc2F)c(F)c1
S. CC1C[C@@H](c2ccncc2NC(=O)c2ccc(F)c(-c3c(F)cc(Oc4ccncc4)cc3F)n2)C[C@@H](O)[C@]1(C)O (stereo in doubt)
-- ask Sequence the entries by IC50, beginning with the highest number. Ranked list of labels, please, in the requested order.
-- reply P, S, Q, R

P. C[C@H]1C[C@@H](c2ccncc2NC(=O)c2ccc(F)c(-c3c(F)cc(OCCO)cc3F)n2)C[C@@H](O)[C@]1(C)O
Q. CCc1cc(F)c(-c2nc(C(=O)Nc3cnccc3[C@H]3C[C@@H](N)[C@](C)(O)[C@@H](C)C3)ccc2F)c(F)c1
-- ask Hello, I am sorting some records. Could you say if P or Q has the smaller IC50 value? // respond with label for picked entry
-- reply Q
